system: IL-17 production by CD4 T cells; test: Human Th17 assay (IL-17 production by CD4 T cells under Th17 differentiation conditions); assay type: cell-based; conditions: Homo sapiens, CD4+ T, 72 h, IL-17 in supernatant after 3 days
Reported pIC50 is given for each of the following molecules.
pIC50 (log units): -log10 of the concentration in mol/L.

// known answers, use as guide
>>> value("COc1cccc(C(O)(c2cccnc2)c2ccc3nc(Cl)c(-c4ccccc4)c(Cl)c3c2)c1 (centres unmarked) [Example 54]")
6.44
>>> value("Cn1cncc1C(O)(c1cncnc1)c1ccc2nc(Cl)c(-c3ccccc3)c(Cl)c2c1 (centres unmarked) [Example 120]")
6.40
>>> value("CCN(CC)c1nc2ccc(C(O)(c3ccncc3)c3cncn3C)cc2c(C)c1-c1ccccc1 (centres unmarked) [Example 102]")
6.82
>>> value("OC(c1ccccc1)(c1cccnc1)c1ccc2nc(Cl)c(-c3ccccc3)c(Cl)c2c1 (centres unmarked) [Example 2]")
6.21
>>> value("Cc1cc(C(O)(c2ccc(F)cc2)c2cncn2C)cc2c(C#N)c(-c3cccc(F)c3)c(C#N)nc12 (single isomer, unassigned) [Example 175c]")
6.96

Give measured pIC50 for [O-][n+]1cccc(C(O)(c2cccc(Cl)c2)c2ccc3nc(C(F)(F)F)c(-c4ccccc4)c(C(F)(F)F)c3c2)c1 (centres unmarked) [Example 166] (IL-17 production by CD4 T cells).
6.82

Consider the molecule Cc1nc(C)c(C(O)(c2ccc3nc(Cl)c(-c4ccccc4)c(Cl)c3c2)c2cncn2C)s1 (centres unmarked) [Example 143] tested on IL-17 production by CD4 T cells; state its pIC50.
7.70

====

test system: IL-17 production by CD4 T cells; test: Human Th17 assay (IL-17 production by CD4 T cells under Th17 differentiation conditions); assay type: cell-based; details: Homo sapiens, CD4+ T, 72 h, IL-17 in supernatant after 3 days
// assign satisfied if IC50 falls strictly below 500 nM, else not satisfied (ties count as not satisfied)

>>> qualitative_label("Cc1cc(C(O)(c2cc(C)c3nc(Cl)c(-c4ccccc4)c(Cl)c3c2)c2cncn2C)ccn1 (stereo not drawn)")
"satisfied"
>>> qualitative_label("CN(C)c1nc2ccc(C(O)(c3ccncc3)c3cncn3C)cc2c(Cl)c1-c1ccccc1 (stereo not drawn) [Example 48a]")
"satisfied"
>>> qualitative_label("Oc1ccc(C(O)(c2cccnc2)c2ccc3nc(Cl)c(-c4ccccc4)c(Cl)c3c2)cc1 (stereo not drawn)")
"not satisfied"
>>> qualitative_label("Cn1cncc1C(O)(c1ccc(Cl)nc1)c1ccc2nc(Cl)c(-c3ccccc3)c(Cl)c2c1 (stereo not drawn)")
"not satisfied"

Here's an entry: CC(=O)N1CCCC(C(O)(c2cccnc2)c2ccc3nc(Cl)c(-c4ccccc4)c(Cl)c3c2)C1 (stereo not drawn) . Is its IC50 below 500 nM?
not satisfied

====

system: IL-17 production by CD4 T cells; assay: Human Th17 assay (IL-17 production by CD4 T cells under Th17 differentiation conditions); type: cell-based; details: IL-17 in supernatant after 3 days
Listed here are compounds together with their documented pIC50.
A value of pIC50 is the negative decimal logarithm of a concentration given in moles per litre.

Supply recorded pIC50 for COc1nc2c(C)cc(C(O)(c3ccc(F)cc3)c3cncn3C)cc2c(C#N)c1-c1cccc(F)c1 (single isomer, unassigned) [Example 180c] here.
7.01

Identify measured pIC50 associated with CC(=O)N1CCC(C(O)(c2ccccc2)c2ccc3nc(C(F)(F)F)c(-c4ccccc4)c(C(F)(F)F)c3c2)CC1 (single isomer, unassigned) [Example 169b]
7.57
